Sourced from paper PMC8272121

Each entry below lists one item and its recorded solubility at 20 h value.
- protocolSummary: Aqueous solubility, miniaturized shake flask method (HPLC-DAD)
- Type: physicochemical
- conditionNotes: aqueous solution, aqueous buffer, thermodynamic from solid, pH 6.5, shake flask 20 h, 25 °C
Numeric only. Scale: µM

Entry O=C(/C=C/c1ccccc1F)c1ccc(S(=O)(=O)NCCCNc2ccnc3cc(Cl)ccc23)cc1 [Compound 15] has what solubility at 20 h?
5

Next compound: O=C(/C=C/c1ccc(F)cc1F)c1ccc(S(=O)(=O)NCCCNc2ccnc3cc(Cl)ccc23)cc1 [Compound 18]
130

Next compound: O=C(/C=C/c1ccco1)c1ccc(S(=O)(=O)NCCCNc2ccnc3cc(Cl)ccc23)cc1 [Compound 21]
200
